- test system: CPV-2 NS1 endonuclease (Canine parvovirus type 2)
- Construct: hexahistidine (N); hexahistidine (C); made in house; host or cells: E. coli BL21 (De3) pLysS
- run description: FRET nicking assay, inhibition of recombinant CPV-2 NS1 endonuclease
- Assay type: biochemical, Canine parvovirus type 2 (CPV-2)
- run conditions: pH 7, read-out: Inhibition (%) at 50 μM, 50 μM inhibitor, 0.6 μM FRET substrate, 1.25 μg enzyme, 50 mM Tris/HCl pH 7.0, 37°C, 3 min
# inhibition at 50 µM per entry

Below, each entry is followed by its recorded inhibition at 50 µM result.
{"compound": "O=C(/C=C/c1ccc(O)cc1)CC(=O)/C=C/c1ccc(O)cc1 [Bisdemethoxycurcumin]", "inhibition at 50 µM": "> 95%"}
{"compound": "COc1cc(/C=C/C(=O)CC(=O)/C=C/c2ccc(O)cc2)ccc1O [Demethoxycurcumin]", "inhibition at 50 µM": "> 95%"}
{"compound": "CCCCC/C=C\\C/C=C\\CCCCCCCC(=O)O [Linoleic acid]", "inhibition at 50 µM": "> 95%"}
{"compound": "COc1cc(/C=C/C(=O)CC(=O)/C=C/c2ccc(O)c(OC)c2)ccc1O [Curcumin]", "inhibition at 50 µM": "> 95%"}
{"compound": "Cc1c(C)c2c(c(C)c1O)CC[C@@](C)(CCC[C@H](C)CCC[C@H](C)CCCC(C)C)O2 [α-Tocopherol (Vitamin E), α-Tocopherol]", "inhibition at 50 µM": "> 95%"}

Below: the item to evaluate.
Exercise: Need inhibition at 50 µM of O=c1c(-c2ccc(O)cc2)coc2cc(O)cc(O)c12 [Genistein] , thanks.
Solution: < 50%

====

- test system: CPV-2 NS1 endonuclease (Canine parvovirus type 2, UniProt P12929)
- Construct: hexahistidine (N); hexahistidine (C); made in house; host or cells: E. coli BL21 (De3) pLysS
- Sequence (P12929 1-277): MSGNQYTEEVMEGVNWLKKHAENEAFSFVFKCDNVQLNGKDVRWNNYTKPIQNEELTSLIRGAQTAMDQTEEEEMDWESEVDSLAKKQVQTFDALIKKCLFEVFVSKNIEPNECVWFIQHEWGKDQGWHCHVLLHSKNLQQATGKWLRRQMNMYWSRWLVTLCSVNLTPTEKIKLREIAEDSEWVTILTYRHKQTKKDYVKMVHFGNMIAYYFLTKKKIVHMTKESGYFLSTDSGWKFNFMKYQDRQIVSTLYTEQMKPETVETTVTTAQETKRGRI
- run description: FRET nicking assay, inhibition of recombinant CPV-2 NS1 endonuclease
- Assay type: biochemical, Canine parvovirus type 2 (CPV-2)
- run conditions: 50 μM inhibitor, 0.6 μM FRET substrate, 1.25 μg enzyme, 50 mM Tris/HCl pH 7.0, 37°C, 3 min

{"compound": "C[C@@H]1O[C@@H](OC[C@H]2O[C@@H](Oc3c(-c4ccc(O)c(O)c4)oc4cc(O)cc(O)c4c3=O)[C@H](O)[C@@H](O)[C@@H]2O)[C@H](O)[C@H](O)[C@H]1O [Rutin]", "Inhibition (%) at 50 μM": "did not inhibit"}
{"compound": "c1cc2c(cc1O[C@H]1OC[C@H]3[C@@H]1CO[C@@H]3c1ccc3c(c1)OCO3)OCO2 [Sesamolin]", "Inhibition (%) at 50 μM": "did not inhibit"}
{"compound": "O=C(O[C@@H]1Cc2c(O)cc(O)cc2O[C@@H]1c1cc(O)c(O)c(O)c1)c1cc(O)c(O)c(O)c1 [EGCG, epigallocatechin gallate]", "Inhibition (%) at 50 μM": "49 ± 6%"}
{"compound": "O=c1c(O)c(-c2cc(O)c(O)c(O)c2)oc2cc(O)cc(O)c12 [Myricetin]", "Inhibition (%) at 50 μM": "did not inhibit"}

====

# Inhibition (%) at 50 μM per entry
- test system: CPV-2 NS1 endonuclease (Canine parvovirus type 2)
- Construct: hexahistidine (N); hexahistidine (C); made in house; host or cells: E. coli BL21 (De3) pLysS
- run description: FRET nicking assay, inhibition of recombinant CPV-2 NS1 endonuclease
- Format: biochemical, Canine parvovirus type 2 (CPV-2)
- run conditions: 50 μM inhibitor, 0.6 μM FRET substrate, 1.25 μg enzyme, 50 mM Tris/HCl pH 7.0, 37°C, 3 min
Please give a number only; it is taken to be in %.

Below, each entry is followed by its recorded Inhibition (%) at 50 μM result.
{"compound": "COc1cc(/C=C/C(=O)CC(=O)/C=C/c2ccc(O)c(OC)c2)ccc1O [Curcumin]", "test system": "CPV-2 NS1 endonuclease (Canine parvovirus type 2)", "Inhibition (%) at 50 μM": 100}
{"compound": "O=C(/C=C/c1ccc(O)c(O)c1)O[C@@H]1C[C@](O)(C(=O)O)C[C@@H](O)[C@H]1O [Chlorogenic acid]", "test system": "CPV-2 NS1 endonuclease (Canine parvovirus type 2)", "Inhibition (%) at 50 μM": 29}
{"compound": "O=c1c(-c2ccc(O)cc2)coc2cc(O)ccc12 [Daidzein]", "test system": "CPV-2 NS1 endonuclease (Canine parvovirus type 2)", "Inhibition (%) at 50 μM": 22}
{"compound": "Cn1c(=O)c2c(ncn2C)n(C)c1=O [Caffeine]", "test system": "CPV-2 NS1 endonuclease (Canine parvovirus type 2)", "Inhibition (%) at 50 μM": 7}

Below: the item to evaluate.
Exercise: Need Inhibition (%) at 50 μM of CC1(C)CC[C@]2(C(=O)O)CC[C@]3(C)C(=CC[C@@H]4[C@@]5(C)CC[C@H](O)C(C)(C)[C@@H]5CC[C@]43C)[C@@H]2C1 [Oleanolic acid] , thanks.
Solution: 51

====

- test system: CPV-2 NS1 endonuclease (Canine parvovirus type 2, UniProt P12929)
- Construct: hexahistidine (N); hexahistidine (C); made in house; host or cells: E. coli BL21 (De3) pLysS
- run description: FRET nicking assay, inhibition of recombinant CPV-2 NS1 endonuclease
- Assay type: biochemical, Canine parvovirus type 2 (CPV-2)
- run conditions: 50 μM inhibitor, 0.6 μM FRET substrate, 1.25 μg enzyme, 50 mM Tris/HCl pH 7.0, 37°C, 3 min
experimental endpoint: Inhibition (%) at 50 μM
Please give a number only; it is taken to be in %.

Below, each entry is followed by its recorded Inhibition (%) at 50 μM result.
{"smiles record": "COc1cc(/C=C/C(=O)CC(=O)/C=C/c2ccc(O)cc2)ccc1O", "experimental endpoint": "Inhibition (%) at 50 μM", "obs value": 100}
{"smiles record": "O=C(O)/C=C/c1ccc(O)c(O)c1", "experimental endpoint": "Inhibition (%) at 50 μM", "obs value": 42}
{"smiles record": "CCCCC/C=C\\C/C=C\\CCCCCCCC(=O)O", "experimental endpoint": "Inhibition (%) at 50 μM", "obs value": 100}
{"smiles record": "O=C(/C=C/c1ccc(O)cc1)CC(=O)/C=C/c1ccc(O)cc1", "experimental endpoint": "Inhibition (%) at 50 μM", "obs value": 100}
{"smiles record": "COc1cc(/C=C/C(=O)O)ccc1O", "experimental endpoint": "Inhibition (%) at 50 μM", "obs value": 37}

Exercise: Need Inhibition (%) at 50 μM of C[C@H]1[C@H](C)CC[C@]2(C(=O)O)CC[C@]3(C)C(=CC[C@@H]4[C@@]5(C)CC[C@H](O)C(C)(C)[C@@H]5CC[C@]43C)[C@H]12 , thanks.
Solution: 29

Exercise: Need Inhibition (%) at 50 μM of Oc1ccc2c(c1)OCO2 , thanks.
Solution: 9

Exercise: Need Inhibition (%) at 50 μM of O=C(O)c1cc(O)c(O)c(O)c1 , thanks.
Solution: 2

Exercise: Need Inhibition (%) at 50 μM of O=c1c(-c2ccc(O)cc2)coc2cc(O)cc(O)c12 , thanks.
Solution: 45

Exercise: Need Inhibition (%) at 50 μM of O=c1c(O)c(-c2ccc(O)c(O)c2)oc2cc(O)cc(O)c12 , thanks.
Solution: 51

Exercise: Need Inhibition (%) at 50 μM of Cc1c(C)c2c(c(C)c1O)CC[C@@](C)(CCC[C@H](C)CCC[C@H](C)CCCC(C)C)O2 , thanks.
Solution: 98

====

- test system: CPV-2 NS1 endonuclease (Canine parvovirus type 2, UniProt P12929)
- Construct: hexahistidine (N); hexahistidine (C)
- run description: FRET nicking assay, inhibition of recombinant CPV-2 NS1 endonuclease
- run conditions: single compounds; 0.6 μM FRET substrate, 1.25 μg endonuclease, pH 7.0, 300 mM NaCl, 37°C, 3 min; curcumin by 4PL, others by linear regression
pIC50: −log10 of the molar value.
Assign class by pIC50: not lower than 6 means true; lower than 6 means false.

{"smiles record": "COc1cc(/C=C/C(=O)CC(=O)/C=C/c2ccc(O)c(OC)c2)ccc1O", "test system": "CPV-2 NS1 endonuclease (Canine parvovirus type 2, UniProt P12929)", "label": "true"}
{"smiles record": "Cc1c(C)c2c(c(C)c1O)CC[C@@](C)(CCC[C@H](C)CCC[C@H](C)CCCC(C)C)O2", "test system": "CPV-2 NS1 endonuclease (Canine parvovirus type 2, UniProt P12929)", "label": "false"}
{"smiles record": "O=C(/C=C/c1ccc(O)cc1)CC(=O)/C=C/c1ccc(O)cc1", "test system": "CPV-2 NS1 endonuclease (Canine parvovirus type 2, UniProt P12929)", "label": "true"}

Let's switch to this molecule now.
Exercise: Tell me whether pIC50 is at least 6 here: COc1cc(/C=C/C(=O)CC(=O)/C=C/c2ccc(O)cc2)ccc1O
Solution: true

Just for reference, paper PMC10331946 is where these values come from.
